Data provenance: patent US4607034A

Test system: ICR-strain male mice
Test: in vivo
Type: in vivo
Details: 5,000 mg/kg, oral; ten mice/group, one week
Reported Number of dead mouse by item:
Returns: the value as a bare number; no unit string appended.

The examples below pair each entry with its known result.
molecule	test_target	Number of dead mouse
COc1cc2nc(N3CCN(C(=O)Nc4ccccc4)CC3)nc(N)c2cc1OC [Compound 12]	ICR-strain male mice	0
COc1cc2nc(N3CCN(/C(S)=N/c4ccccc4)CC3)nc(N)c2cc1OC [Compound 35]	ICR-strain male mice	0
COc1cc2nc(N3CCN(C(=O)Nc4ccccc4F)CC3)nc(N)c2cc1OC [Compound 25]	ICR-strain male mice	10
COc1cc2nc(N3CCN(C(=O)NC4CCCCC4)CC3)nc(N)c2cc1OC [Compound 4]	ICR-strain male mice	0
CCOc1ccc(NC(=O)N2CCN(c3nc(N)c4cc(OC)c(OC)cc4n3)CC2)cc1 [Compound 21]	ICR-strain male mice	0
COc1cc2nc(N3CCN(C(=O)Nc4ccccc4C)CC3)nc(N)c2cc1OC [Compound 13]	ICR-strain male mice	10

Turning now to a further molecule:
[Q] For ICR-strain male mice, provide Number of dead mouse of COc1cc2nc(N3CCN(C(=O)NC4CCCC4)CC3)nc(N)c2cc1OC [Compound 3] please.
[A] 0

----------
Test: in vivo
Type: in vivo
Conditions: mouse, in vivo; oral, mice, ten mice/group, observed one week
quantity_kind: LD50 at 168 h

COc1cc2nc(N3CCN(C(=O)Nc4ccccc4)CC3)nc(N)c2cc1OC > 5000 mg/kg
COc1cc2nc(N3CCN(/C(S)=N/c4ccccc4)CC3)nc(N)c2cc1OC > 5000 mg/kg
COc1cc2nc(N3CCN(C(=O)Nc4ccccc4F)CC3)nc(N)c2cc1OC 1870 mg/kg
COc1cc2nc(N3CCN(C(=O)Nc4ccccc4C)CC3)nc(N)c2cc1OC 2500 mg/kg
COc1cc2nc(N3CCN(C(=O)NC4CCCCC4)CC3)nc(N)c2cc1OC > 5000 mg/kg
COc1cc2nc(N3CCN(C(=O)NC4CCCC4)CC3)nc(N)c2cc1OC > 5000 mg/kg

Please turn your attention to the following entry.
[Q] Need LD50 at 168 h, item CCOc1ccc(NC(=O)N2CCN(c3nc(N)c4cc(OC)c(OC)cc4n3)CC2)cc1
[A] > 5000 mg/kg

----------
Recorded change in vivo at 3 mg/kg, one value per entry.
System: spontaneously hypertensive rats (SHR)
Assay: Antihypertensive test in spontaneously hypertensive rats (mean blood pressure)
Assay type: in vivo, male)
Conditions: Rattus norvegicus; SHR 3 mg/kg, oral administration; 6 hrs; negative = decrease; read-out: Percent decrease in mean blood pressure after administration, 6 hrs
Please respond with the number in % and leave the unit unwritten.

Examples with answers:
molecule	measure_unit	change in vivo at 3 mg/kg
COc1cc2nc(N3CCN(C(=O)Nc4ccccc4)CC3)nc(N)c2cc1OC [Compound 12]	%	-17
COc1cc2nc(N3CCN(C(=O)c4ccco4)CC3)nc(N)c2cc1OC [Prazosin, reference compound]	%	-19
COc1cc2nc(N3CCN(C(=O)NC4CCCCC4)CC3)nc(N)c2cc1OC [Compound 4]	%	-25.1

[Q] Hello, I am looking for reported change in vivo at 3 mg/kg with spontaneously hypertensive rats (SHR) for COc1cc2nc(N3CCN(C(=O)Nc4ccccc4C)CC3)nc(N)c2cc1OC [Compound 13] . Could you help?
[A] -21.4

[Q] Request: COc1cccc(NC(=O)N2CCN(c3nc(N)c4cc(OC)c(OC)cc4n3)CC2)c1 [Compound 18]
[A] -15.9

[Q] Field entry: COc1cc2nc(N3CCN(C(=S)NC4CCCCC4)CC3)nc(N)c2cc1OC [Compound 9]
[A] -20.5

[Q] Then this molecule: COc1cc2nc(N3CCN(C(=O)Nc4cccc(Cl)c4)CC3)nc(N)c2cc1OC [Compound 29]
[A] -19.4

[Q] Another molecule to look at: COc1cc2nc(N3CCN(/C(S)=N/c4ccccc4)CC3)nc(N)c2cc1OC [Compound 35]
[A] -24.7

[Q] Please give the result for COc1cc2nc(N3CCN(C(=O)NC4CCCCCC4)CC3)nc(N)c2cc1OC [Compound 5] too.
[A] -19.2

[Q] Follow-up item: CCOc1ccc(NC(=O)N2CCN(c3nc(N)c4cc(OC)c(OC)cc4n3)CC2)cc1 [Compound 21]
[A] -27.7

[Q] Subsequent entry: COc1cc2nc(N3CCN(C(=O)Nc4ccco4)CC3)nc(N)c2cc1OC [Compound 6]
[A] -11.4

[Q] Try the molecule COc1cc2nc(N3CCN(C(=O)Nc4cccc(F)c4)CC3)nc(N)c2cc1OC [Compound 26]
[A] -24.3
